The reported measurements were obtained from PubChem BioAssay.

# measurementProtocol: modulators of LAP4-GFP expression in yeast, primary screen, S. cerevisiae, multiplex flow cytometry (AID 1873)
# details: 3 h, at 10 µM, stronger effect = higher value
Inconclusive results are not listed.
Reported values of GFP response vs DMSO for individual entries
Kindly provide the numeric value in % only, without the unit symbol.

Worked examples follow.
{"columns": ["compound", "propertyMeasured", "measurement"],
 "data": [
  ["CN(Cc1ccccc1)CC(O)COc1ccc(CNCc2cccnc2)cc1 (stereo unspecified)", "GFP response vs DMSO", 91.3],
  ["CCOc1ccc(C(=O)Nc2ccc(N3CCN(C(C)=O)CC3)cc2)cc1[N+](=O)[O-]", "GFP response vs DMSO", 78.7],
  ["CN(C)c1ccc(O)c2c1CC1CC3[C@@H](N(C)C)C(=O)C(C(N)=O)=C(O)[C@]3(O)C(=O)C1=C2O (stereo partly specified)", "GFP response vs DMSO", 93.7],
  ["CN=C1c2cc3cc(OC)ccc3n2CCN1C", "GFP response vs DMSO", 93.3],
  ["CC(=O)Oc1cc(C(C)C)c(OCCN(C)C)cc1C", "GFP response vs DMSO", 97.4],
  ["CC(C)OC(=O)CC1C(=O)NCCN1C(=S)NC(=O)c1cccs1 (stereo unspecified)", "GFP response vs DMSO", 98.4]
]}

**Query** For the compound COc1cc(Cl)cc2c1Sc1ccccc1/C2=C/CCN(C)C , give its measured GFP response vs DMSO value.
**Result** 93.7

----------
Reported values of GFP response, % of DMSO for individual entries
# measurementProtocol: modulators of CIT2-GFP expression in yeast, confirmation, S. cerevisiae, GFP fusion, cherry picks, mother/daughter gates (AID 2274)
# details: S. cerevisiae CIT2-GFP strain, flow cytometry, 3 h; at 10 µM; stronger effect = higher value
Kindly provide the numeric value in % only, without the unit symbol.

Worked examples follow.
{"columns": ["molecule", "readingUnit", "GFP response, % of DMSO"],
 "data": [
  ["COc1ccc(C(=O)Nc2c(N)nc[nH]c2=O)cc1", "%", 105],
  ["Cc1ccc(C(C(=O)NC2CCCCC2)N(CCCN2CCOCC2)C(=O)c2snc(C(N)=O)c2N)cc1 (stereo unspecified)", "%", 102],
  ["Cc1[nH]n(-c2ncc(-c3ccccc3)s2)c(=O)c1C(c1ccc(Cl)cc1)C(C#N)C#N (stereo unspecified)", "%", 95.8],
  ["CCNC(=O)/C(C#N)=C/c1c(N2CC(C)OC(C)C2)nc2ccccn2c1=O (stereo unspecified)", "%", 103]
]}

**Query** For the molecule Cc1[nH]c(-c2ccccn2)nc(=S)c1Cl , give its measured GFP response, % of DMSO value.
**Result** 107

**Query** For the molecule COc1cccc(/C(C)=N/NC(=O)c2ccc(N(C)C)cc2)c1 , give its measured GFP response, % of DMSO value.
**Result** 102

**Query** For the molecule COc1ccc(C2CC(c3cccs3)=NN2S(=O)(=O)c2ccc(C)cc2)cc1 (stereo unspecified) , give its measured GFP response, % of DMSO value.
**Result** 106

**Query** For the molecule O=C1/C(=C\c2ccc(O)c(O)c2)SC(=S)N1Cc1ccccc1 , give its measured GFP response, % of DMSO value.
**Result** 113

**Query** For the molecule Cc1ccc(S(=O)(=O)N2C3C=CC(C3)C2C(=O)O)cc1 (stereo unspecified) , give its measured GFP response, % of DMSO value.
**Result** 97.2

**Query** For the molecule C=CCN1C(=O)C2(C(C#N)=C(N)Oc3n[nH]c(CCC)c32)c2ccccc21 (stereo unspecified) , give its measured GFP response, % of DMSO value.
**Result** 100

**Query** For the molecule C/C(=N\NC(=O)c1cc2ccccc2cc1O)c1ccccn1 , give its measured GFP response, % of DMSO value.
**Result** 132
